Quick list: ED25 per entry.
- Test system: gastric ulcers provoked by a pylorus ligature (Shay rat)
- test protocol: Protective action on the stomach: antiulcerogenic test in the Shay rat (pylorus ligature + oral 100 mg/kg acetylsalicylic acid), reduction of ulcer index
- Assay type: in vivo
- condition notes: Rattus norvegicus, po; dose reducing ulcer index by 25% vs control, logarithmic interpolation
# unit: mg/kg | format: bare number

Sample records with ED25:
{"compound": "COc1ccnc(C[S+]([O-])c2nc3cc(C(F)(F)F)ccc3[nH]2)c1 (centres unmarked) [Serial No. 2]", "unit label": "mg/kg", "recorded measurement": 0.24}
{"compound": "COc1ccnc(C[S+]([O-])c2nc3cc(C(F)(F)F)ccc3[nH]2)c1C (centres unmarked) [Serial No. 3]", "unit label": "mg/kg", "recorded measurement": 0.3}

// switching to the query compound
Inquiry: Please give measured ED25 of the following entry: COc1c(C)cnc(C[S+]([O-])c2nc3cc(C(F)(F)F)ccc3[nH]2)c1C (centres unmarked) [Serial No. 4]
Reply text: 0.24

* * *

- Tested on: gastric ulcers provoked by a pylorus ligature (Shay rat)
- test protocol: Protective action on the stomach: antiulcerogenic test in the Shay rat (pylorus ligature + oral 100 mg/kg acetylsalicylic acid), reduction of ulcer index
- Format: in vivo
- condition notes: dose 1.0 mg/kg p.o., 1 hour before pylorus ligature
Quick list: Protective action on the stomach (rat), reduction in the ulcer index per entry.
# unit: % | format: bare number

Sample records with Protective action on the stomach (rat), reduction in the ulcer index:
{"compound": "COc1ccnc(C[S+]([O-])c2nc3cc(C(F)(F)F)ccc3[nH]2)c1 (centres unmarked)", "measurement target": "gastric ulcers provoked by a pylorus ligature (Shay rat)", "recorded measurement": 88}
{"compound": "COc1c(C)cnc(C[S+]([O-])c2nc3cc(C(F)(F)F)ccc3[nH]2)c1C (centres unmarked)", "measurement target": "gastric ulcers provoked by a pylorus ligature (Shay rat)", "recorded measurement": 69}
{"compound": "COc1ccnc(CSc2nc3cc(C(F)(F)F)ccc3[nH]2)c1", "measurement target": "gastric ulcers provoked by a pylorus ligature (Shay rat)", "recorded measurement": 27}

Inquiry: Please give measured Protective action on the stomach (rat), reduction in the ulcer index of the following entry: COc1ccnc(C[S+]([O-])c2nc3cc(C(F)(F)F)ccc3[nH]2)c1C (centres unmarked)
Reply text: 98

Inquiry: Please give measured Protective action on the stomach (rat), reduction in the ulcer index of the following entry: COc1ccnc(CSc2nc3cc(C(F)(F)F)ccc3[nH]2)c1C
Reply text: 94
